target: Human tissue-type plasminogen activator (h t-PA) (Homo sapiens); construct: purchased Boehringer Ingelheim Actilyse; experiment: Inhibition of human tissue-type plasminogen activator (reference enzyme); format: biochemical
Outcome measure: Ki

*Q* // fetch Ki; item: CN(C(=O)C[C@@H](NS(=O)(=O)Cc1ccccc1)C(=O)N1CCC[C@H]1C(=O)NCc1cc(Cl)ccc1CN)C1CCNCC1 ; system: Human tissue-type plasminogen activator (h t-PA) (Homo sapiens)
*A* > 50 µM

----------
biological target: Human plasmin (h plasmin) (Homo sapiens)
Sequence (P00747 581-810 limits assumed): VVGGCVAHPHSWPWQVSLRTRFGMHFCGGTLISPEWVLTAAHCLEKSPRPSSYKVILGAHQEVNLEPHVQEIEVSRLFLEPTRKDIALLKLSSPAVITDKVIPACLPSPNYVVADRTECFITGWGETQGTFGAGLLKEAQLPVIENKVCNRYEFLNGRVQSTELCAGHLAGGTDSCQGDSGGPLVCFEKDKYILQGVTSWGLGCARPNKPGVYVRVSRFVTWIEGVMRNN
Sequence (P00747 97-580 partner limits assumed): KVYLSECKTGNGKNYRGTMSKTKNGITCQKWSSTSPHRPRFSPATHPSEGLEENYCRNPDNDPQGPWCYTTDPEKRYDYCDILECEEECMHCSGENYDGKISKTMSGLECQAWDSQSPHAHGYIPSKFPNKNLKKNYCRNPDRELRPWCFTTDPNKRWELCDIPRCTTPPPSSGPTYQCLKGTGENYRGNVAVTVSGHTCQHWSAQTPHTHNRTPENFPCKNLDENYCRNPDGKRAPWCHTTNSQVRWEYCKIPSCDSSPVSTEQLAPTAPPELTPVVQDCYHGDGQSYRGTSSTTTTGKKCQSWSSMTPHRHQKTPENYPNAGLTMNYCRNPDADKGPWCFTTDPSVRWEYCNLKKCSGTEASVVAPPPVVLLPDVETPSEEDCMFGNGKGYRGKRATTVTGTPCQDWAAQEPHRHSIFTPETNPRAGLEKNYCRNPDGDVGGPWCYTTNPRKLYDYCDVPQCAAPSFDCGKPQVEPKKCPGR
Outcome measure: pKi
// returns pKi (minus log10 of molar concentration), number only

*Q* Input NCc1ccc(Cl)cc1CNC(=O)[C@@H]1C[C@H](N)CN1C(=O)[C@@H](CC(=O)N1CCCCC1)NS(=O)(=O)Cc1ccccc1 , output reported pKi.
*A* 5.06

*Q* Input O=C(NCc1cc(Cl)ccc1-n1cnnn1)[C@@H]1CCCN1C(=O)[C@@H](CCC(=O)N1CCOCC1)NS(=O)(=O)Cc1ccccc1 , output reported pKi.
*A* 5.14

----------
Biological target: Subcomponent "r" of Human Complement Component 1 (h C1r) (Homo sapiens, UniProt P00736)
Sequence (P00736 464-705 limits assumed): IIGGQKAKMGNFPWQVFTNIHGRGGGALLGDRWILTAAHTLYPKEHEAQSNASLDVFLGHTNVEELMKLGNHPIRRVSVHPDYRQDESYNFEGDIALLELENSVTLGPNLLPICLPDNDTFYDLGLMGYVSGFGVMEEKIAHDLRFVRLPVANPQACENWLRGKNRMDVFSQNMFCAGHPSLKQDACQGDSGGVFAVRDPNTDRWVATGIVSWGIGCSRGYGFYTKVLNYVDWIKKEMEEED
Sequence (P00736 18-463 partner limits assumed): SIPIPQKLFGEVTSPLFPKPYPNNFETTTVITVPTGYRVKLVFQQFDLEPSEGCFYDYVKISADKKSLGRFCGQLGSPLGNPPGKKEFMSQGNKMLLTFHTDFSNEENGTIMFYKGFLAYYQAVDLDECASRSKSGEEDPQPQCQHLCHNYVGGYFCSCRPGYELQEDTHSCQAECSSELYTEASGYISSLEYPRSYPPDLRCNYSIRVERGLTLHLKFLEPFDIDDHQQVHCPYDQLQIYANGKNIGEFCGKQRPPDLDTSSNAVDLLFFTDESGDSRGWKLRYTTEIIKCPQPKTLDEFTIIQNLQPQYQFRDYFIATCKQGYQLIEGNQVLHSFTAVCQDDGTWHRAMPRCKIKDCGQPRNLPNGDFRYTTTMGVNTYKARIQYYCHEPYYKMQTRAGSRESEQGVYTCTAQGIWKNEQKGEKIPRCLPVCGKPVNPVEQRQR
Counter-ions that a name gives are not always drawn.
For each of the molecules below, state its Ki.

*Q* Input NCc1ccc(Cl)cc1CNC(=O)[C@@H]1C[C@H](O)CN1C(=O)[C@@H](CCC(=O)N1CCOCC1)NS(=O)(=O)Cc1ccccc1 [Compound 2.22] , output reported Ki.
*A* > 100 µM

*Q* Input NCc1ccc(Cl)cc1CNC(=O)[C@@H]1CCCN1C(=O)[C@@H](CCC(=O)N1CCOCC1)NC(=O)OCc1ccccc1 [Compound 2.33] , output reported Ki.
*A* > 100 µM

*Q* Input NCc1ccc(Cl)cc1CNC(=O)[C@@H]1CCCN1C(=O)[C@@H](CCC(=O)N1CCOCC1)NS(=O)(=O)Cc1ccccc1 [Compound 2.1, TFA] , output reported Ki.
*A* > 200 µM

*Q* Input NCc1ccc(Cl)cc1CNC(=O)[C@@H]1CCCN1C(=O)[C@@H](CC(=O)N1CCNCC1)NS(=O)(=O)Cc1ccccc1 [Compound 2.19] , output reported Ki.
*A* > 50 µM

*Q* Input NCc1ccc(Cl)cc1CNC(=O)[C@@H]1CCCN1C(=O)[C@H](N)CCC(=O)N1CCOCC1 [Compound 2.49, TFA] , output reported Ki.
*A* > 10 µM

*Q* Input NCc1ccc(Cl)cc1CNC(=O)[C@@H]1C[C@@H](N)CN1C(=O)[C@@H](CC(=O)N1CCCCC1)NS(=O)(=O)Cc1ccccc1 [Compound 2.7] , output reported Ki.
*A* > 20 µM

*Q* Input NCc1ccc(Cl)cc1CNC(=O)[C@@H]1C[C@H](N)CN1C(=O)[C@@H](CC(=O)N1CCCCC1)NS(=O)(=O)Cc1ccccc1 [Compound 2.6] , output reported Ki.
*A* > 20 µM

*Q* Input O=C(NCc1cc(Cl)ccc1-n1cnnn1)[C@@H]1CCCN1C(=O)[C@@H](CCC(=O)N1CCOCC1)NS(=O)(=O)Cc1ccccc1 [Compound 2.20] , output reported Ki.
*A* > 30 µM

*Q* Input NCc1ccc(Cl)cc1CNC(=O)[C@@H]1CCN1C(=O)[C@@H](CC(=O)N1CCOCC1)NS(=O)(=O)Cc1ccccc1 [Compound 2.44] , output reported Ki.
*A* > 100 µM

*Q* Input CN(CC1CCNCC1)C(=O)C[C@@H](NS(=O)(=O)Cc1ccccc1)C(=O)N1CCC[C@H]1C(=O)NCc1cc(Cl)ccc1CN [Compound 2.16] , output reported Ki.
*A* > 10 µM

*Q* Input CC(=O)N1CCN(C(=O)C[C@@H](NS(=O)(=O)Cc2ccccc2)C(=O)N2CCC[C@H]2C(=O)NCc2cc(Cl)ccc2CN)CC1 [Compound 2.40] , output reported Ki.
*A* > 50 µM

*Q* Input CN(CC1CCOCC1)C(=O)C[C@@H](NS(=O)(=O)Cc1ccccc1)C(=O)N1CCC[C@H]1C(=O)NCc1cc(Cl)ccc1CN [Compound 2.47, TFA] , output reported Ki.
*A* > 10 µM

*Q* Input CC(=O)N1CCC(N(C)C(=O)CC[C@@H](NS(=O)(=O)Cc2ccccc2)C(=O)N2CCC[C@H]2C(=O)NCc2cc(Cl)ccc2CN)CC1 [Compound 2.28] , output reported Ki.
*A* > 100 µM

----------
target: Human Activated Protein C (h aPC) (Homo sapiens); construct: purchased Enzyme Research Laboratories; assay: Inhibition of human activated protein C (reference enzyme); assay type: biochemical; settings: Pefachrome PCa substrate
Sequence (P04070 212-450 limits assumed): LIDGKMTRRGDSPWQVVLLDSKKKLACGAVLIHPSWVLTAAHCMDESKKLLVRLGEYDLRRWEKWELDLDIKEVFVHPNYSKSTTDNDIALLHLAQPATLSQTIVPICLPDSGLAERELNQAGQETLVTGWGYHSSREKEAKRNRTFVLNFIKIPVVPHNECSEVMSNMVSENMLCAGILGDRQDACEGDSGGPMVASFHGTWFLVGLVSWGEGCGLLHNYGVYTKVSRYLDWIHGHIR
Sequence (P04070 43-197 partner limits assumed): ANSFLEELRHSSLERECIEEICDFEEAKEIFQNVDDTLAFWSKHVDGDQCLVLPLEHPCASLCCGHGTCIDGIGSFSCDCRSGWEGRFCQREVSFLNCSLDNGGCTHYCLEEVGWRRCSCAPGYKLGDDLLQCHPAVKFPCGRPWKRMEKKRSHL
Counter-ions that a name gives are not always drawn.
Outcome measure: Ki

*Q* Input NCc1ccc(Cl)cc1CNC(=O)[C@@H]1CCCN1C(=O)[C@@H](CC(=O)N1CCCC1)NS(=O)(=O)Cc1ccccc1 , output reported Ki.
*A* > 40 µM

*Q* Input NCc1ccc(Cl)cc1CNC(=O)[C@@H]1CCCN1C(=O)[C@@H](CCC(=O)N1CCOCC1)NS(=O)(=O)Cc1ccccc1 [Compound 2.1, TFA] , output reported Ki.
*A* > 100 µM

*Q* Input NCc1ccc(Cl)cc1CNC(=O)[C@@H]1CCCN1C(=O)[C@@H](CC(=O)N1CCNCC1)NS(=O)(=O)Cc1ccccc1 , output reported Ki.
*A* > 30 µM

*Q* Input NCc1ccc(Cl)cc1CNC(=O)[C@@H]1C[C@H](N)CN1C(=O)[C@@H](CC(=O)N1CCCCC1)NS(=O)(=O)Cc1ccccc1 , output reported Ki.
*A* > 100 µM

*Q* Input O=C(NCc1cc(Cl)ccc1-n1cnnn1)[C@@H]1CCCN1C(=O)[C@@H](CCC(=O)N1CCOCC1)NS(=O)(=O)Cc1ccccc1 , output reported Ki.
*A* > 30 µM

*Q* Input NCc1ccc(Cl)cc1CNC(=O)[C@@H]1CCCN1C(=O)[C@@H](CC(=O)N1CCCCC1)NS(=O)(=O)Cc1ccccc1 , output reported Ki.
*A* > 100 µM

----------
Target: Human tissue-type plasminogen activator (h t-PA) (Homo sapiens, UniProt P00750)
Construct: purchased Boehringer Ingelheim Actilyse
Sequence (P00750 36-562): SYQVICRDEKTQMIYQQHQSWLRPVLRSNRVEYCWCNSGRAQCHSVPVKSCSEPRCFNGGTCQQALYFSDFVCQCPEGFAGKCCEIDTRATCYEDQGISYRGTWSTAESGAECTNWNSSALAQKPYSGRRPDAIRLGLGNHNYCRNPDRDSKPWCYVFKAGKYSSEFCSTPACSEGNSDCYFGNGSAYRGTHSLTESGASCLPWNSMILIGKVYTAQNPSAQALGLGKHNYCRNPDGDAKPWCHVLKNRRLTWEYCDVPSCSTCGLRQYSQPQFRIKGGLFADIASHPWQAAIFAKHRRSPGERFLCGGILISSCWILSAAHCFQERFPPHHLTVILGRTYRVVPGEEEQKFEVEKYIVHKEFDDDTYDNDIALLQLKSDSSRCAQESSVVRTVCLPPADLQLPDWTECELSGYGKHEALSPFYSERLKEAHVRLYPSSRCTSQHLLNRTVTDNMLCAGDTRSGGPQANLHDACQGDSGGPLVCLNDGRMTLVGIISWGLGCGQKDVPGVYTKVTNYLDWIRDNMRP
Assay: Inhibition of human tissue-type plasminogen activator (reference enzyme)
Assay type: biochemical
Conditions: Pefachrome tPA substrate; read-out: Ki h t-PA
Description: The equilibrium rates were used to calculate the inhibitor/enzyme dissociation constant (Ki values) by parameter fitting in accordance with the rate equation for competitive inhibition using GraFit (version 4 from Erithacus). Dissociation constants were calculated as described herein.
pKi: −log10 of the molar value. Where a name gives a salt, the structure may show the parent alone.
Outcome measure: pKi

*Q* Input NCc1ccc(Cl)cc1CNC(=O)[C@@H]1C[C@@H](N)CN1C(=O)[C@@H](CC(=O)N1CCNCC1)NS(=O)(=O)Cc1ccccc1 , output reported pKi.
*A* 5.03

*Q* Input CC(=O)N1CCC(N(C)C(=O)C[C@@H](NS(=O)(=O)Cc2ccccc2)C(=O)N2CCC[C@H]2C(=O)NCc2cc(Cl)ccc2CN)CC1 , output reported pKi.
*A* < 4.00

*Q* Input NCc1ccc(Cl)cc1CNC(=O)CC[C@@H](NS(=O)(=O)Cc1ccccc1)C(=O)N1CCC[C@H]1C(=O)NCc1cc(Cl)ccc1CN , output reported pKi.
*A* < 4.70

*Q* Input NCc1ccc(Cl)cc1CNC(=O)[C@@H]1C[C@@H](N)CN1C(=O)[C@@H](CC(=O)N1CCCCC1)NS(=O)(=O)Cc1ccccc1 , output reported pKi.
*A* 4.82

*Q* Input CN(C(=O)CC[C@@H](NS(=O)(=O)Cc1ccccc1)C(=O)N1CCC[C@H]1C(=O)NCc1cc(Cl)ccc1CN)C1CCOCC1 , output reported pKi.
*A* < 4.00

*Q* Input NCc1ccc(Cl)cc1CNC(=O)[C@@H]1CCCN1C(=O)[C@H](N)CCC(=O)N1CCOCC1 [Compound 2.49, TFA] , output reported pKi.
*A* < 4.00

*Q* Input NCc1ccc(Cl)cc1CNC(=O)[C@@H]1CCN1C(=O)[C@@H](CCC(=O)N1CCOCC1)NS(=O)(=O)Cc1ccccc1 , output reported pKi.
*A* < 4.10

*Q* Input NCc1ccc(Cl)cc1CNC(=O)[C@@H]1CCCN1C(=O)[C@@H](CC(=O)Nc1ccncc1)NS(=O)(=O)Cc1ccccc1 , output reported pKi.
*A* < 4.00

*Q* Input NCc1ccc(Cl)cc1CNC(=O)[C@@H]1CCCN1C(=O)[C@@H](CC(=O)N1CC[C@@H](N)C1)NS(=O)(=O)Cc1ccccc1 , output reported pKi.
*A* < 4.00

*Q* Input NCc1ccc(Cl)cc1CNC(=O)[C@@H]1CCCN1C(=O)[C@@H](CC(=O)N1CCNCC1)NS(=O)(=O)Cc1ccccc1 , output reported pKi.
*A* < 5.30

*Q* Input CC(=O)N1CCN(C(=O)C[C@@H](NS(=O)(=O)Cc2ccccc2)C(=O)N2CCC[C@H]2C(=O)NCc2cc(Cl)ccc2CN)CC1 , output reported pKi.
*A* < 4.70

*Q* Input NCc1ccc(Cl)cc1CNC(=O)[C@@H]1CCCN1C(=O)[C@@H](CCC(=O)O)NS(=O)(=O)Cc1ccccc1 , output reported pKi.
*A* < 4.70

*Q* Input NCc1ccc(Cl)cc1CNC(=O)[C@@H]1CCCCN1C(=O)[C@@H](CCC(=O)N1CCOCC1)NS(=O)(=O)Cc1ccccc1 , output reported pKi.
*A* < 5.00

*Q* Input O=C(NCc1cc(Cl)ccc1-n1cnnn1)[C@@H]1CCCN1C(=O)[C@@H](CCC(=O)N1CCOCC1)NS(=O)(=O)Cc1ccccc1 , output reported pKi.
*A* < 4.82

*Q* Input NCc1ccc(Cl)cc1CNC(=O)[C@@H]1CCCCN1C(=O)[C@@H](CC(=O)N1CCOCC1)NS(=O)(=O)Cc1ccccc1 , output reported pKi.
*A* < 4.30

*Q* Input CC(=O)N1CCC(CN(C)C(=O)C[C@@H](NS(=O)(=O)Cc2ccccc2)C(=O)N2CCC[C@H]2C(=O)NCc2cc(Cl)ccc2CN)CC1 , output reported pKi.
*A* < 4.00

*Q* Input NCc1ccc(Cl)cc1CNC(=O)[C@@H]1CCCN1C(=O)[C@@H](CCC(=O)N1CCOCC1)NC(=O)OCc1ccccc1 , output reported pKi.
*A* < 4.70

*Q* Input CN(C(=O)CC[C@@H](NS(=O)(=O)Cc1ccccc1)C(=O)N1CCC[C@H]1C(=O)NCc1cc(Cl)ccc1CN)C1CCNCC1 , output reported pKi.
*A* < 4.00

*Q* Input NCc1ccc(Cl)cc1CNC(=O)[C@@H]1CCCN1C(=O)[C@@H](CC(=O)N1CC[C@H](N)C1)NS(=O)(=O)Cc1ccccc1 , output reported pKi.
*A* < 4.00

*Q* Input NCc1ccc(Cl)cc1CNC(=O)[C@@H]1CCCN1C(=O)[C@@H](CC(=O)O)NS(=O)(=O)Cc1ccccc1 , output reported pKi.
*A* < 4.30

*Q* Input NCc1ccc(Cl)cc1CNC(=O)[C@@H]1C[C@H](N)CN1C(=O)[C@@H](CC(=O)N1CCNCC1)NS(=O)(=O)Cc1ccccc1 , output reported pKi.
*A* 6.00
